- Target or test system: Kras and SOS1 (biotin-tagged human Kras loaded with GDP, His-tagged human SOS1) (Homo sapiens, UniProt P01116, G12D)
- Construct: made in house; host or cells: E. coli (stated for Kras only)
- Sequence (P01116 1-188 isoform P01116-2 G12D): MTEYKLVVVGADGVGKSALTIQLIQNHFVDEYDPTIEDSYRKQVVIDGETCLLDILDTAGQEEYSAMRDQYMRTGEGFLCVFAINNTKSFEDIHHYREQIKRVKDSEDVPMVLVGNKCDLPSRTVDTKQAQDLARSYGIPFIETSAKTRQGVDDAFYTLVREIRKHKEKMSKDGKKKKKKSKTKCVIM
- Assay remarks: Protein-protein interaction inhibition between Kras and SOS1 (KrasGl2D-SOS PPI) using AlphaScreen
- Format: binding
- Measurement setup: AlphaScreen; biotin-tagged human Kras loaded with GDP, His-tagged human SOS1; read-out: KRAS G12D-SOS PPI IC50
Starred links: 1 amine or outer side, 2 acyl side, 3 side chain; linkers in the order of their positions; H or OH if unused. Positions of bridges follow the written chain, without caps; N, C: chain ends. Non-standard residues stand in square brackets, D forms with d. Residues, ends and D or L forms follow the SMILES beside them. *: point of attachment. hPhe(3-Cl-4-CF3) = N[C@@H](CCc1ccc(C(F)(F)F)c(Cl)c1)C(=O)O; NMePhe(4-CF3) = CN[C@@H](Cc1ccc(C(F)(F)F)cc1)C(=O)O; NMePhe(4-Cl) = CN[C@@H](Cc1ccc(Cl)cc1)C(=O)O; NMePhe(4-Me) = CN[C@@H](Cc1ccc(C)cc1)C(=O)O; NMedβ3hAla = C[C@H](CC(=O)[*:2])N(C)[*:1]; Phe(2-OMe) = COc1ccccc1C[C@H](N)C(=O)O; Phe(3-I) = N[C@@H](Cc1cccc(I)c1)C(=O)O; NMeY = CN[C@@H](Cc1ccc(O)cc1)C(=O)O; NMeCha = CN[C@@H](CC1CCCCC1)C(=O)O; NMeChg = CN[C@H](C(=O)O)C1CCCCC1; NMeD = CN[C@@H](CC(=O)O)C(=O)O; NMeL = CN[C@@H](CC(C)C)C(=O)O; NMeNva = CCC[C@H](NC)C(=O)O; NMeV = CN[C@H](C(=O)O)C(C)C; Ac6c = NC1(C(=O)O)CCCCC1; Morpholide = C1CN(*)CCO1; NMeA = CN[C@@H](C)C(=O)O; NMeAib = CNC(C)(C)C(=O)O; Nle = CCCC[C@H](N)C(=O)O; Piperidide = C1CCN(*)CC1; Pyrrolidide = C1CCN(*)C1; Ac5c = NC1(C(=O)O)CCCC1; Aze = O=C(O)[C@@H]1CCN1; CF3 = FC(F)(F)*; Sar = CNCC(=O)O
Readout label: IC50 (nM)
Only the number, expressed in nM, is required.

Compound: CCC[C@H]1C(=O)N[C@@H]([C@@H](C)CC)C(=O)N(C)CC(=O)N(C)CC(=O)N(C)[C@@H](Cc2ccc(C(F)(F)F)cc2)C(=O)N(C)CC(=O)N[C@@H](CCc2ccc(C(F)(F)F)c(Cl)c2)C(=O)N2CCC[C@H]2C(=O)NC2(CCCC2)C(=O)N(C)[C@@H](C2CCCCC2)C(=O)N(C)[C@H](C(=O)N2CCOCC2)CC(=O)N1C [Compound 1972] ([NMeNva]I[Sar][Sar][NMePhe(4-CF3)][Sar][hPhe(3-Cl-4-CF3)]P[Ac5c][NMeChg][NMeD]-Morpholide; lactam N-11)
IC50 (nM): 0.37

Compound: CC[C@H](C)[C@@H]1NC(=O)[C@H](CC(C)C)N(C)C(=O)C[C@@H](C)N(C)C(=O)[C@H](C(C)C)N(C)C(=O)C2(CCCCC2)NC(=O)[C@@H]2CCCN2C(=O)[C@H](CCc2ccc(C(F)(F)F)c(Cl)c2)NC(=O)CN(C)C(=O)[C@H](CC2CCCCC2)N(C)C(=O)CN(C)C(=O)CN(C)C1=O [Compound 81] (cyclo([Ac6c][NMeV][NMedβ3hAla][NMeL]I[Sar][Sar][NMeCha][Sar][hPhe(3-Cl-4-CF3)]P))
IC50 (nM): 14

Compound: CC[C@H](C)[C@@H]1NC(=O)[C@H](CC(C)C)N(C)C(=O)C[C@@H](C(=O)N2CCCCC2)N(C)C(=O)[C@H](CC(C)C)NC(=O)C(C)(C)N(C)C(=O)[C@H](Cc2ccccc2OC)NC(=O)[C@H](Cc2cccc(I)c2)NC(=O)CN(C)C(=O)[C@H](Cc2ccc(C)cc2)N(C)C(=O)CN(C)C(=O)CN(C)C1=O [Compound 1100] ([NMeL]I[Sar][Sar][NMePhe(4-Me)][Sar][Phe(3-I)][Phe(2-OMe)][NMeAib]L[NMeD]-Piperidide; lactam N-11)
IC50 (nM): 6.3

Compound: CCCC[C@@H]1NC(=O)[C@H](Cc2cccc(I)c2)NC(=O)CN(C)C(=O)[C@H](Cc2ccc(Cl)cc2)N(C)C(=O)CN(C)C(=O)CN(C)C(=O)[C@H]([C@@H](C)CC)NC(=O)[C@H](CC(C)C)N(C)C(=O)C[C@@H](C(=O)N2CCCCC2)N(C)C(=O)[C@H](CC(C)C)NC(=O)[C@H](Cc2ccc(OC(F)(F)F)cc2)N(C)C1=O [Compound 819] ([NMeL]I[Sar][Sar][NMePhe(4-Cl)][Sar][Phe(3-I)][Nle][NMeY](CF3)L[NMeD]-Piperidide; lactam N-11)
IC50 (nM): 53

Could you now look at the following compound, please?
Form field: reported IC50 of CC[C@H](C)[C@@H]1NC(=O)[C@H](CC(C)C)N(C)C(=O)C[C@@H](C(=O)N2CCCC2)N(C)C(=O)[C@H](C(C)C)N(C)C(=O)C2(CCCC2)NC(=O)[C@@H]2CCCN2C(=O)[C@H](CCc2ccc(C(F)(F)F)c(Cl)c2)NC(=O)CN(C)C(=O)[C@H](CC2CCCCC2)N(C)C(=O)[C@@H]2CCN2C(=O)[C@H](C)N(C)C1=O [Compound 1656] ([NMeL]I[NMeA][Aze][NMeCha][Sar][hPhe(3-Cl-4-CF3)]P[Ac5c][NMeV][NMeD]-Pyrrolidide; lactam N-11)
1.4
